Source: ChEMBL document CHEMBL1136534

Molecular target: UniProt P29475
Sequence (P29475 whole entry): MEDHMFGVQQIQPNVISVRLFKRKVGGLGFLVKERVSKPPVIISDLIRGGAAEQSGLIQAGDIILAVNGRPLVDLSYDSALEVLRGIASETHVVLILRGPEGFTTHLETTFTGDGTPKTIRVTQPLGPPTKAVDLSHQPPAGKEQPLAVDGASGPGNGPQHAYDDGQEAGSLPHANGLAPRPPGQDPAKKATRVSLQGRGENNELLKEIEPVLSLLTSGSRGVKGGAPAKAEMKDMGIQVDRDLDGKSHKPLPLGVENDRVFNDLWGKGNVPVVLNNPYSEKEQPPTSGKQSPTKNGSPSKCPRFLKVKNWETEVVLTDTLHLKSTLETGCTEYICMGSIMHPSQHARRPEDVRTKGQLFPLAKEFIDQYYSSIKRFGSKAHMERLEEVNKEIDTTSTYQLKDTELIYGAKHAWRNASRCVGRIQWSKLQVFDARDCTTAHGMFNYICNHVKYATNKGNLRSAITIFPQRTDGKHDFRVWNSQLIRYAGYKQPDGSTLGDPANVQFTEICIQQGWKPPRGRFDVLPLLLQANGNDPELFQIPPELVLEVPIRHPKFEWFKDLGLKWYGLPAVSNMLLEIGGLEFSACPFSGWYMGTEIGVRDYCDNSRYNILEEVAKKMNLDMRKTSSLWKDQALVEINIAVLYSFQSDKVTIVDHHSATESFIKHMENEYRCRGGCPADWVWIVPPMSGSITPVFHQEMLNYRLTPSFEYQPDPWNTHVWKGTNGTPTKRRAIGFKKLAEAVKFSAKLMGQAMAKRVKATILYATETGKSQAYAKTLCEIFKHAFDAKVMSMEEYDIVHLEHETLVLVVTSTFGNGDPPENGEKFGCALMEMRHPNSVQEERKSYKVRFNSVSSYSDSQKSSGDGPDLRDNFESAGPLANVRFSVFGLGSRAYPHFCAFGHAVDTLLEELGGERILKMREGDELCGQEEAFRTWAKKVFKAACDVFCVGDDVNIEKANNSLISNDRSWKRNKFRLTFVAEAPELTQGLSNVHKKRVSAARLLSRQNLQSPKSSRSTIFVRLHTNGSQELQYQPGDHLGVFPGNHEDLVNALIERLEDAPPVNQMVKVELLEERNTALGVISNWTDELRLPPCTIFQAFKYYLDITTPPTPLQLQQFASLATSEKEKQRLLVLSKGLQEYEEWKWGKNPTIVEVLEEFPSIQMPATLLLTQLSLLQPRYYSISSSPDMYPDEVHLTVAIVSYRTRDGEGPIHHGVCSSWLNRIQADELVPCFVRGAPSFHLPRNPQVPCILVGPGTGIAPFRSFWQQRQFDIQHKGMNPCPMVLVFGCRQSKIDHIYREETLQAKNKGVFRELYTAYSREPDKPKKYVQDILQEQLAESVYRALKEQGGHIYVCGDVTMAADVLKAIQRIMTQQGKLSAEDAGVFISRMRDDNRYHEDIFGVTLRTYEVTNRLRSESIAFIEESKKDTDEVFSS
Assay: Inhibitory concentration against recombinant human (neuronal nitric oxide synthase) n-NOS
assay readout: IC50 (nM)
Respond numerically; units are nM and should not be typed.

NC1=Nc2cc(CCNCc3cccc(Cl)c3)c(Cl)cc2[C@H]2CCC[C@@H]12 | 170

Exercise: # query: IC50 | item N=C(Nc1ccc(CCNCc2cccc(Cl)c2)cc1)c1cccs1 | system: UniProt P29475
Solution: 35

Exercise: # query: IC50 | item NC1=Nc2cc(CNCc3cccc(Cl)c3)ccc2[C@H]2CCC[C@@H]12 | system: UniProt P29475
Solution: 140

Exercise: # query: IC50 | item NC1=Nc2cc(CCNCc3cccc(Cl)c3)ccc2[C@H]2CCC[C@@H]12 | system: UniProt P29475
Solution: 48

Exercise: # query: IC50 | item CNCCOc1ccc2c(c1)N=C(N)[C@@H]1CCC[C@H]21 | system: UniProt P29475
Solution: 170

Exercise: # query: IC50 | item NC1=Nc2cc(CCCNCc3cccc(Cl)c3)ccc2[C@H]2CCC[C@@H]12 | system: UniProt P29475
Solution: 42
